# testedOn: UniProt:Q9NYK1
# Sequence (Q9NYK1 27-1049): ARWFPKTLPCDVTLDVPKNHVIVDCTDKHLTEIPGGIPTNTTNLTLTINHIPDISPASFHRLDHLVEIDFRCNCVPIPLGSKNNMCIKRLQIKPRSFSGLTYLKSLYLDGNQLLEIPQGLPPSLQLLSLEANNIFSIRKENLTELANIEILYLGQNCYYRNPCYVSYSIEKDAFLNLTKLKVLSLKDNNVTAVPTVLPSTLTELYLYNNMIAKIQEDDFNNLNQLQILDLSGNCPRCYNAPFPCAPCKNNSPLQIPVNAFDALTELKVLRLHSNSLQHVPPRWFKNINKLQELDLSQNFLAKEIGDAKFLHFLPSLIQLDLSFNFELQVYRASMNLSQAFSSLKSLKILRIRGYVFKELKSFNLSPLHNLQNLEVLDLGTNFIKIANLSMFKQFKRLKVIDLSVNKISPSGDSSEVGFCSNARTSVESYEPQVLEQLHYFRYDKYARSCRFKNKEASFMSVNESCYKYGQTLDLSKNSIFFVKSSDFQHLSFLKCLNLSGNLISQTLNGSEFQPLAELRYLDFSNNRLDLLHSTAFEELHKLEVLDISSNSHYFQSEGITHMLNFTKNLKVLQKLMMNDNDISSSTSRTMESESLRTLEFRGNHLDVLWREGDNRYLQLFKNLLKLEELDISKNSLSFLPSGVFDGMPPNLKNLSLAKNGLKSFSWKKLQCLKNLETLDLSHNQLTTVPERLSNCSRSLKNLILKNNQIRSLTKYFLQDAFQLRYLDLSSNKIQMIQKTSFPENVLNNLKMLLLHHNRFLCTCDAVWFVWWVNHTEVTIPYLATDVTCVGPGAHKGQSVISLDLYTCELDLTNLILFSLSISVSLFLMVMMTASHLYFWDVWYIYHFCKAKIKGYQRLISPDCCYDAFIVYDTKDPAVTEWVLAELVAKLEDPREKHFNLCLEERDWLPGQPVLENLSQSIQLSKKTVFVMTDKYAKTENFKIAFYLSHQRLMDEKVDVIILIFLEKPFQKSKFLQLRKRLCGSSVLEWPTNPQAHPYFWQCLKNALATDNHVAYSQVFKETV
# assayComment: HEK293-Blue-hTLR-7 cells assay
# conditionInfo: HEK293-Blue-hTLR7 cells, SEAP reporter, R848 stimulation, 20 hrs
measurementName: log10(IC50) (log10 of the value in µM)
Please be aware that the numbers have been log10-transformed from IC50 in µM.

Before answering, review these 3 worked examples.
compound: N[C@@H]1CCC[C@H](NC(=O)C2CN(c3ccc(C(F)(F)F)c4nccnc34)CC23CC3)C1 (relative stereo)
log10(IC50): -1.09
--
compound: N[C@H]1CC[C@@H](NC(=O)C2CN(c3ccc(C(F)(F)F)c4nccnc34)CC23CC3)CC1 (stereo partly shown)
log10(IC50): -1.13
--
compound: C[C@H]1CN(c2ccc([N+](=O)[O-])c3ncccc23)C[C@@H]1C(=O)NC1CCN(C)CC1
log10(IC50): -1.42

Identify the measured log10(IC50) of `Cc1ccc(N2C[C@H](C(=O)NC3CCN(C)CC3)[C@@H](C)C2)c2nccnc12` for UniProt:Q9NYK1.
-1.35

Next up: CC[C@@H]1CN(c2ccc(C#N)c3ncccc23)C[C@H]1C(=O)NC1CCN(C)CC1 (relative stereo)
-1.40

Please give the result for `C[C@H]1CN(c2ccc(C#N)n3nccc23)C[C@@H]1C(=O)NC1CCN(C)CC1` too.
-1.08

Subsequent entry: `CN1CCC(NC(=O)[C@H]2CN(c3ccc(C(F)(F)F)c4nccnc34)C[C@@H]2C(F)(F)F)CC1`
-2.40

Cool, now N[C@@H]1C[C@H](NC(=O)C2CN(c3ccc(C(F)(F)F)c4nccnc34)CC23CC3)[C@@H]2C[C@@H]21 (stereo partly shown)
-1.24

Also CN1CCCC(CNC(=O)C2CN(c3ccc(C#N)c4ncccc34)CC23CC3)C1 (stereo not shown) ?
-0.70

What do we get for N[C@H]1CC[C@H](NC(=O)C2CN(c3ccc(C(F)(F)F)c4nccnc34)CC23CC3)CC1 (stereo partly shown) ?
-1.54

Now try O=C(NC1CC2CCC(C1)N2)C1CN(c2ccc(C(F)(F)F)c3nccnc23)CC12CC2 (stereo not shown) .
-1.55

Param item: CN1CCC(NC(=O)C2CN(c3ccc(C#N)c4nccnc34)CC23CC3)CC1 (single isomer, unassigned) [Example 7B]
-2.22

Next compound up: `CN1CCC(NC(=O)[C@H]2CN(c3ccc(C#N)c4ncccc34)C[C@@H]2C(F)(F)F)CC1`
-2.05

Another compound: O=C(NC1C2CCC1CNC2)C1CN(c2ccc(C(F)(F)F)c3nccnc23)CC12CC2 (stereo not shown)
-1.74

And the next one, N#Cc1ccc(N2CC(C(=O)NC3CCCNCC3)C(C(F)(F)F)C2)c2cccnc12 (single isomer, unassigned) [Example 30A] ?
-1.39

Try this compound too: `C[C@H]1CN(c2ccc(Cl)c3ncccc23)C[C@@H]1C(=O)NC1CCN(C)CC1`
-0.75
